B1: Osa-1-4 twister ribozyme (parent)
chain: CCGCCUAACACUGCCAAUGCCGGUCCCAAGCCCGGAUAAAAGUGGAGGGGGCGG

Variants of: B1
Assay: self-cleavage, relative activity (ratio to wild type); higher = more cleavage; co-transcriptional
Label scheme, based on self-cleavage: one = under 0.04, two = from 0.04 up to 0.1, three = 0.1 and over

{"VARIANT_CODE": "C25G U24A", "CLASS_LABEL": "one"}
{"VARIANT_CODE": "C32G G47A", "CLASS_LABEL": "two"}
{"VARIANT_CODE": "A7G G48A", "CLASS_LABEL": "two"}
{"VARIANT_CODE": "C15A U37G", "CLASS_LABEL": "three"}
{"VARIANT_CODE": "C14G G35U", "CLASS_LABEL": "two"}
{"VARIANT_CODE": "C15U G34U", "CLASS_LABEL": "three"}
{"VARIANT_CODE": "A16C G23A", "CLASS_LABEL": "three"}
{"VARIANT_CODE": "C31G G53A", "CLASS_LABEL": "two"}
{"VARIANT_CODE": "G35A U24G", "CLASS_LABEL": "one"}
{"VARIANT_CODE": "C27G U24G", "CLASS_LABEL": "one"}
{"VARIANT_CODE": "A16G U18A", "CLASS_LABEL": "three"}
{"VARIANT_CODE": "G13U G48U", "CLASS_LABEL": "one"}
{"VARIANT_CODE": "A38C A39U", "CLASS_LABEL": "three"}
{"VARIANT_CODE": "A41G U18C", "CLASS_LABEL": "three"}
{"VARIANT_CODE": "A46C G45U", "CLASS_LABEL": "one"}
{"VARIANT_CODE": "A39C G51C", "CLASS_LABEL": "two"}
{"VARIANT_CODE": "A41C G54A", "CLASS_LABEL": "three"}
{"VARIANT_CODE": "A46U C9G", "CLASS_LABEL": "two"}
{"VARIANT_CODE": "C14U G19C", "CLASS_LABEL": "one"}
{"VARIANT_CODE": "A7C G22C", "CLASS_LABEL": "one"}
{"VARIANT_CODE": "G42U G50U", "CLASS_LABEL": "three"}
{"VARIANT_CODE": "A36G U18C", "CLASS_LABEL": "three"}
{"VARIANT_CODE": "C11A G49A", "CLASS_LABEL": "two"}
{"VARIANT_CODE": "A41G G19C", "CLASS_LABEL": "two"}
{"VARIANT_CODE": "C14G C52A", "CLASS_LABEL": "three"}
{"VARIANT_CODE": "A41G G34A", "CLASS_LABEL": "three"}
{"VARIANT_CODE": "A38U A41U", "CLASS_LABEL": "three"}
{"VARIANT_CODE": "C14G G50C", "CLASS_LABEL": "two"}
{"VARIANT_CODE": "A41U U24G", "CLASS_LABEL": "one"}
{"VARIANT_CODE": "G35C G49U", "CLASS_LABEL": "two"}
{"VARIANT_CODE": "C32G G44A", "CLASS_LABEL": "three"}
{"VARIANT_CODE": "G22C G30U", "CLASS_LABEL": "one"}
{"VARIANT_CODE": "A16C C15A", "CLASS_LABEL": "three"}
{"VARIANT_CODE": "A46U G35A", "CLASS_LABEL": "two"}
{"VARIANT_CODE": "A10U C14G", "CLASS_LABEL": "one"}
{"VARIANT_CODE": "A46C C11G", "CLASS_LABEL": "one"}
{"VARIANT_CODE": "C21U G44A", "CLASS_LABEL": "three"}
{"VARIANT_CODE": "A29U A7C", "CLASS_LABEL": "one"}

These entries and their values trace back to the RNAGym collection of RNA variant scans (doi:10.1002/anie.201605470).
